melting point listing for selected compounds.

Before answering, review these 5 worked examples.
# Compound, Metric name, Result
data = [
    ("O=C(O)CNC(=O)c1cc2ccccc2[nH]1", "melting point", "231 to 233 °C"),
    ("O=C(O)c1cc(F)cc(S(=O)(=O)Cl)c1", "melting point", "136 to 138 °C"),
    ("Nc1ccc(C(=O)N2CCCCCC2)cc1", "melting point", "133 to 135 °C"),
    ("CN(C)C(=O)c1ccnc(N)c1", "melting point", "196 to 198 °C"),
    ("CNS(=O)(=O)c1ccc(C(C)N)cc1 (configuration not stated)", "melting point", "104 to 106 °C"),
]

QUERY: I'd like to know its melting point. The compound in question is CC(C)Oc1ccc(S(N)(=O)=O)cc1
RESULT: 121 to 123 °C

QUERY: Field request: melting point | item: O=C(O)/C=C/c1cc(Cl)c2c(c1)OCCCO2
RESULT: 178 to 180 °C

QUERY: Please report the recorded melting point for Cn1cnnc1S(C)(=O)=O .
RESULT: 132 to 134 °C

QUERY: Quick one: melting point for N#Cc1ccc(S(=O)(=O)N2CCC(O)CC2)cc1 ?
RESULT: 161 to 163 °C

QUERY: Quick one: melting point for NC(=O)c1ccsc1NC(=O)CCCl ?
RESULT: 171 to 173 °C

QUERY: Reported melting point for Cc1ccc(N)cc1S(C)(=O)=O : what is it?
RESULT: 72 to 74 °C

QUERY: Quick check: melting point of Ic1ccc2ncccc2c1 ?
RESULT: 86 to 88 °C

QUERY: Quick one: melting point for O=C1COc2ccc(Cl)cc2N1 ?
RESULT: 211 to 213 °C

QUERY: I'd like to know its melting point. The compound in question is CC1CCN(c2ccc([N+](=O)[O-])cc2C(=O)O)CC1
RESULT: 160 to 162 °C

QUERY: // lookup melting point for O=C(O)COc1ccc(C(F)(F)F)cc1
RESULT: 184 to 186 °C

QUERY: Need melting point, item CSc1ccc(-c2csc(N)n2)cc1
RESULT: 219 to 221 °C

QUERY: Could you share which melting point value was measured for CS(=O)(=O)OCCn1cnc2ccsc2c1=O ?
RESULT: 112 to 114 °C

QUERY: I'd like to know its melting point. The compound in question is Cc1ccc2c(CCl)cc(=O)oc2c1C
RESULT: 174 to 176 °C

QUERY: Record request: melting point value, item O=Cc1ccccc1OCc1cccnc1
RESULT: 57 to 59 °C

QUERY: Fill in: melting point of CNS(=O)(=O)CC1CCCN1 (configuration not stated) is ___
RESULT: 91 to 93 °C

QUERY: Entry under review: CCn1c(=O)cc(Cl)[nH]c1=O . Reported melting point?
RESULT: 210 to 212 °C

QUERY: Item O=C1CC(=O)Nc2cc(S(=O)(=O)Cl)ccc2N1 has what recorded melting point?
RESULT: 253 to 255 °C

Taken from a melting point compilation (Tetko et al.).
